Biological target: full-length FLAG-tagged B-Raf(V600E) (Homo sapiens, UniProt P15056, V600E)
Construct: 5 nM full-length, N-terminally FLAG-tagged B-Raf(V600E) (Origene Technologies, TP700031)
Sequence (P15056 whole entry V600E): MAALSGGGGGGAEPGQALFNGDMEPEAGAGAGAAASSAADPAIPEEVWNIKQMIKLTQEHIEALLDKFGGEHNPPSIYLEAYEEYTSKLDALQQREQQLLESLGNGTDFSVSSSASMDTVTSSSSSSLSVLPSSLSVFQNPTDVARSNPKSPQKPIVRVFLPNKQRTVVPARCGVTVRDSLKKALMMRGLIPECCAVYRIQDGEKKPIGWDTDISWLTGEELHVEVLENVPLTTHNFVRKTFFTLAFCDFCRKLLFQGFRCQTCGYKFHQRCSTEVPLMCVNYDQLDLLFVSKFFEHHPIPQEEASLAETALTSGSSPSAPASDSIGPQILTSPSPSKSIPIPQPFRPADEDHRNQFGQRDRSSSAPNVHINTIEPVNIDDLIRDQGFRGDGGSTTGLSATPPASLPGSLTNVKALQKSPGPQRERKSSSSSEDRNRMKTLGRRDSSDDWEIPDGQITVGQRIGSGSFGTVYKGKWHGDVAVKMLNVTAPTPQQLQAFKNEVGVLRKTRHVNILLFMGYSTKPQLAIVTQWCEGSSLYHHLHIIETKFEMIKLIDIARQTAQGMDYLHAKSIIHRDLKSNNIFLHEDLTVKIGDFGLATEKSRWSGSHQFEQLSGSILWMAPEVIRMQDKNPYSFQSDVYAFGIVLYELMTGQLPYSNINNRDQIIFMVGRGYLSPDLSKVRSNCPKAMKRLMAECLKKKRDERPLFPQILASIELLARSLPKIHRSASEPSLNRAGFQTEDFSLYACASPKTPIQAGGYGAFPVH
Assay: BRAF V600E enzyme assay (TR-FRET competitive tracer displacement)
Settings: 60 min, ambient temperature
readoutKind: pIC50
Field pIC50 (float): negative decimal logarithm of the concentration in molar.

Request: Item Cn1cnc2ccc(Nc3c(F)ccc(NS(=O)(=O)N4CC(F)C4)c3Cl)c(Cl)c2c1=O [Compound 1] has what recorded pIC50?
Response: 8.52

---

Assay: PK (free brain-to-free plasma ratio) (mouse)
Format: in vivo
Details: male CD-1 mice, oral gavage 10 mg/kg, (B/P)*(Bfu/Pfu)
readoutKind: Kp,uu (unbound brain-to-unbound plasma ratio)

Request: So what does the record say about Kp,uu (unbound brain-to-unbound plasma ratio) for Cn1cnc2ccc(Nc3c(F)ccc(NS(=O)(=O)N4CC(F)C4)c3Cl)c(Cl)c2c1=O ?
Response: 0.12 to 0.17
